method_description: Plasma cholesterol and triglycerides in C57BL/6 mice (Olympus AU400e)
Format: in vivo, mouse
assay_setup: Week 3, 50 mg/kg/week
Method: Four groups of five mice each were injected twice a week with 25 mg/kg (totaling 50 mg/kg/week) of ISIS 447114, ISIS 447118, ISIS 447143, or ISIS 447144 for 6 weeks. […] To investigate the effect of inhibition of TTC39B on triglycerides and cholesterol levels in the plasma, samples were collected on weeks 0, 3, and 6, and total plasma cholesterol, LDL cholesterol, HDL cholesterol, and triglycerides were analyzed on an Olympus AU400e Analyzer.
Oligonucleotides are written 5' to 3', each unit as a sugar letter and its base; * is a phosphorothioate linkage, no mark a phosphodiester; rarer units and linkages stand in square brackets, end groups in braces. Plain capitals give the bases only. e = 2'-O-(2-methoxyethyl) (MOE); [5mC] = 5-methylcytosine; d = 2'-deoxy (DNA)
measurement_name: HDL cholesterol levels (% change over baseline)

Below: 3 sequences and their reported HDL cholesterol levels (% change over baseline).
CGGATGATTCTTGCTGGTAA (antisense e[5mC]*eG*eG*eA*eT*dG*dA*dT*dT*d[5mC]*dT*dT*dG*d[5mC]*dT*eG*eG*eT*eA*eA) [ISIS 447114] | +14%
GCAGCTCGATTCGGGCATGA (antisense eG*e[5mC]*eA*eG*e[5mC]*dT*d[5mC]*dG*dA*dT*dT*d[5mC]*dG*dG*dG*e[5mC]*eA*eT*eG*eA) [ISIS 447118] | +15%
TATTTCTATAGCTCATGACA (antisense eT*eA*eT*eT*eT*d[5mC]*dT*dA*dT*dA*dG*d[5mC]*dT*d[5mC]*dA*eT*eG*eA*e[5mC]*eA) [ISIS 447144] | +14%

// query Entry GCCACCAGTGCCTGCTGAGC (antisense eG*e[5mC]*e[5mC]*eA*e[5mC]*d[5mC]*dA*dG*dT*dG*d[5mC]*d[5mC]*dT*dG*d[5mC]*eT*eG*eA*eG*e[5mC]) [ISIS 447143] : reported HDL cholesterol levels (% change over baseline) = ?
// result +28%

----------
System: APOA1 plasma protein
method_description: APOA1 plasma protein levels in C57BL/6 mice
Type: in vivo, mouse
Set-up: unit not given here
assay_setup: Week 6, 50 mg/kg/week
Oligonucleotides are written 5' to 3', each unit as a sugar letter and its base; * is a phosphorothioate linkage, no mark a phosphodiester; rarer units and linkages stand in square brackets, end groups in braces. Plain capitals give the bases only. e = 2'-O-(2-methoxyethyl) (MOE); [5mC] = 5-methylcytosine; d = 2'-deoxy (DNA)
measurement_name: APOA1 plasma protein levels

Below: 3 sequences and their reported APOA1 plasma protein levels.
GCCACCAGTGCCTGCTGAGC (antisense eG*e[5mC]*e[5mC]*eA*e[5mC]*d[5mC]*dA*dG*dT*dG*d[5mC]*d[5mC]*dT*dG*d[5mC]*eT*eG*eA*eG*e[5mC]) [ISIS 447143] | +20
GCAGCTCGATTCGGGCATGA (antisense eG*e[5mC]*eA*eG*e[5mC]*dT*d[5mC]*dG*dA*dT*dT*d[5mC]*dG*dG*dG*e[5mC]*eA*eT*eG*eA) [ISIS 447118] | +18
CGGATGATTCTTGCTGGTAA (antisense e[5mC]*eG*eG*eA*eT*dG*dA*dT*dT*d[5mC]*dT*dT*dG*d[5mC]*dT*eG*eG*eT*eA*eA) [ISIS 447114] | +22

Continue with the sequence presented below.
// query Hi! What's the reported APOA1 plasma protein levels for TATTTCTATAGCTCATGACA (antisense eT*eA*eT*eT*eT*d[5mC]*dT*dA*dT*dA*dG*d[5mC]*dT*d[5mC]*dA*eT*eG*eA*e[5mC]*eA) [ISIS 447144] on APOA1 plasma protein?
// result +20
